Test system: LOC_OS04G38480-cb003;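 also: purified Escherichia coli-expressed rice kinase domain construct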
Sequence (as listed by the source): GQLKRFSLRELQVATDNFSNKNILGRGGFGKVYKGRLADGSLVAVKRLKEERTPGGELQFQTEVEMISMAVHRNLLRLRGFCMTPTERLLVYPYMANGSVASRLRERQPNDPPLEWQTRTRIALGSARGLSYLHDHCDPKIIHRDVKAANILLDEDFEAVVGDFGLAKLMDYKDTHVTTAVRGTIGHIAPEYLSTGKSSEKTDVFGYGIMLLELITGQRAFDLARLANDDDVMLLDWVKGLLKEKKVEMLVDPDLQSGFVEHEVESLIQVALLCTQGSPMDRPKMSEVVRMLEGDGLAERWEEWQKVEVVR
assay_details: thermal shift delta Tm vs DMSO control; higher = stronger stabilization (binding)
particulars: 12.5 µM; protein concentration 2 µM
Listed below: thermal shift delta Tm values for each entry.
Put down the number, then write its unit next to it.

Would you please look over these solved cases?
INSERT INTO assay_data (molecule, observation_type, result) VALUES
  ('COc1ccc(-c2ccc3c(N4CCOC[C@@H]4C)nc(N4CCOC[C@@H]4C)nc3n2)cc1CO', 'thermal shift delta Tm', '-0.21 °C'),
  ('O=c1c(-c2ccc(O)cc2)coc2cc(O)cc(O)c12 [Genistein]', 'thermal shift delta Tm', '-1.76 °C'),
  ('CNC(=O)c1cc(Oc2ccc3nc(N[C@@H]4CCCC[C@H]4O)sc3c2)ccn1', 'thermal shift delta Tm', '1.59 °C');

# get_value(readout='thermal shift delta Tm', item= O=C(Nc1nc2cccc(-c3ccc(CN4CCS(=O)(=O)CC4)cc3)n2n1)C1CC1 [Filgotinib (GLPG0634)] ) 1.66 °C

Entry `CC[C@@H]1C(=O)N(C)c2cnc(Nc3ccc(C(=O)NC4CCN(C)CC4)cc3OC)nc2N1C1CCCC1` please -0.31 °C

Data provenance: the supplement of paper PMC9694430
